// reported Selectivity factor (LOX IC50 value divided by LSDAO IC50 value) per item
Biological target: Lysyl oxidase (LOX) (Bos taurus, UniProt P33072)
Construct: LOX was isolated from bovine aorta; from tissue; host or cells: bovine aorta
Sequence (P33072 170-418): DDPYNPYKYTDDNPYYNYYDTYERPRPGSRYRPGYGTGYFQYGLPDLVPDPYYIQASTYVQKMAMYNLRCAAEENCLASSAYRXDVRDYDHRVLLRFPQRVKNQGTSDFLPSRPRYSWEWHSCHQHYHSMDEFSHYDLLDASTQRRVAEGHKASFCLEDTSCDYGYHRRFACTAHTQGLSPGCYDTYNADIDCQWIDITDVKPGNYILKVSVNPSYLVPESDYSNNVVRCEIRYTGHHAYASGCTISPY
Assay: LOX activity assay (Amplex UltraRed/HRP fluorescence) after preincubation of enzyme with inhibitor
Assay type: biochemical, bovine
Settings: 10-min preincubation; LOX vs LSDAO

NNc1ccccc1 [compound 1, phenylhydrazine, reference compound]: 600

Entry under test: CCCCNC(=O)NN [compound 5] . Its Selectivity factor (LOX IC50 value divided by LSDAO IC50 value) was 25

Noted for CCCCCC(=O)NN [compound 3] : its Selectivity factor (LOX IC50 value divided by LSDAO IC50 value) reads 10

Measured Selectivity factor (LOX IC50 value divided by LSDAO IC50 value) of CCCCCCCNN [compound 4] : 1300

###

Molecular target: lentil seedling diamine oxidase (LSDAO) (Lens culinaris, UniProt P49252)
Construct: Eight-day-old lentil seedlings (Lens esculenta) were blended and extracted; from tissue; host or cells: eight-day-old lentil seedlings (Lens esculenta)
Assay: LSDAO activity assay (Amplex UltraRed/HRP fluorescence) after preincubation of enzyme with inhibitor
Assay type: biochemical
Details: 10-min preincubation, 37 °C; read-out: IC50 LSDAO
Readout Type: pIC50
Remember the convention: pIC50 equals -log10 of concentration in molar.

CCCCCC(=O)NN: 5.70

Kindly consider the entry below.
Entry CCCCNC(=O)NN : pIC50 on lentil seedling diamine oxidase (LSDAO) (Lens culinaris, UniProt P49252) = 5.40

###

Molecular target: Lysyl oxidase (LOX) (Bos taurus, UniProt P33072)
Construct: LOX was isolated from bovine aorta; from tissue; host or cells: bovine aorta
Experiment: LOX activity assay (Amplex UltraRed/HRP fluorescence) after preincubation of enzyme with inhibitor
Type: biochemical, bovine
Readout Type: IC50

// recorded IC50 for NNc1ccccc1 [compound 1, phenylhydrazine, reference compound] : 6 µM

###

Target: lentil seedling diamine oxidase (LSDAO) (Lens culinaris)
Construct: Eight-day-old lentil seedlings (Lens esculenta) were blended and extracted; from tissue; host or cells: eight-day-old lentil seedlings (Lens esculenta)
Sequence (P49252 19-667): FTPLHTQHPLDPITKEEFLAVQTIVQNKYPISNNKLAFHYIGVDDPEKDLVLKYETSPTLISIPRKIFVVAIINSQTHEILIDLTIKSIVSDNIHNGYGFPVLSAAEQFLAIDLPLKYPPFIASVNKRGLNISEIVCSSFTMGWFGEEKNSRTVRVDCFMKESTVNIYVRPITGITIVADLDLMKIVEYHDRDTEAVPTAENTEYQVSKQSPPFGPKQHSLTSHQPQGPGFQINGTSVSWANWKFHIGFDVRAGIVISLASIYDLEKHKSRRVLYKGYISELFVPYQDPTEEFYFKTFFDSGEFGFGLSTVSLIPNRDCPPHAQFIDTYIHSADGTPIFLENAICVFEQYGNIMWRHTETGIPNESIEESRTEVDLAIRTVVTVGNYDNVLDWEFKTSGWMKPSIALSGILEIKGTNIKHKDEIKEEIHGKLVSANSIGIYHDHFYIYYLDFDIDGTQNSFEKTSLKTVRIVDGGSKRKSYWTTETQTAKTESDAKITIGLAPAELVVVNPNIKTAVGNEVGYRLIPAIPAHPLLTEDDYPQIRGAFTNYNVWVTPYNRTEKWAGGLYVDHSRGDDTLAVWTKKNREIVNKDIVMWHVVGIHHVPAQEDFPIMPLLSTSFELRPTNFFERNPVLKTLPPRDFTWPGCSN
Assay: LSDAO activity assay (Amplex UltraRed/HRP fluorescence) after preincubation of enzyme with inhibitor
Type: biochemical
Listed here are molecules together with their documented IC50.
# number only, unit nM dropped from output

NNc1ccccc1 [compound 1, phenylhydrazine, reference compound]: 10

Let us move to another entry and its IC50.
// IC50 lookup, molecule = CCCCCCCNN [compound 4] , result: 30
